Cited source: ChEMBL document CHEMBL3352510

For each of the compounds below, state its IC50.
- Tested on: Neutrophil
- Method: Inhibition of FMLP/CB-stimulated elastase release in human neutrophils preincubated for 5 mins before FMLP/CB treatment using MeO-Suc-Ala-Ala-Pro-Val-pnitroanilide by spectrophotometry
- Assay type: functional, cell-based
# number only, unit µM dropped from output

IC50 of C[C@@H]1CC[C@@]2(OC1)O[C@H]1C[C@H]3[C@@H]4C[C@H](O[C@@H]5OC[C@@H](O)[C@H](O[C@@H]6OC[C@@H](O)[C@H](O)[C@H]6O)[C@H]5O)[C@H]5C[C@@H](O)CC[C@]5(C)[C@H]4CC[C@]3(C)[C@H]1[C@@H]2C on Neutrophil? 4.2

Okay, and C[C@@H]1CC[C@@]2(OC1)O[C@H]1C[C@H]3[C@@H]4C[C@H](O[C@@H]5O[C@H](C)[C@@H](O)[C@H](O)[C@H]5O)[C@H]5C[C@@H](O)CC[C@]5(C)[C@H]4CC[C@]3(C)[C@H]1[C@@H]2C ? 3.7
